Method description: Pharmacokinetic study, single oral gavage dosing
Format: in vivo
Setup conditions: mouse, 40 mg/kg, 40 mpk, 15% solutol HS15 + 85% PBS, ICR mice, plasma, read-out: Peak concentration Cmax
Measurement kind: Cmax (ng/mL)
Write it as a number; the unit ng/mL goes unstated.

{"Structure smiles string": "COc1cc2nn([C@H]3CC[C@](C)(O)CC3)cc2cc1NC(=O)c1cccc(C)[n+]1[O-]", "Units text": "ng/mL", "Recorded result": 24200}
{"Structure smiles string": "COc1cc2nn(CCC(C)(C)O)cc2cc1NC(=O)c1cccc(C)[n+]1[O-]", "Units text": "ng/mL", "Recorded result": 25900}

Next molecule, Cmax to be filled in.
// lookup Cmax for COc1cc2nn([C@H]3CC[C@H](O)CC3)cc2cc1NC(=O)c1cccc(C)[n+]1[O-]
18900
